Known composite z-score of a selection of compounds
Target: Torsin-1A-interacting protein 2 (Homo sapiens)
Assay: LULL1 binders on small-molecule microarray, primary screen, cell lysate, human LULL1 lysate, 635/667 nm fluorescence (AID 1092);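 also: probe is lysate of COS7 cells overexpressing human LULL1; score merges per-feature 667 nm fluorescence with signal-to-noise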
Settings: hLULL1 lysate binding, 635 nm fluorescence, higher = more signal
endpoint: composite z-score

> print(dat)
                           structure.smiles           endpoint  reading
1  O=C1C[C@@H](O)[C@@H](O)[C@@H]2[C@@H]3C(=O)N(c4ccc(F)cc4F)C(=O)[C@@H]3CC[C@@H]12  composite z-score    0.662
2  COc1ccc(O[C@H]2C=C[C@@H](c3ccccc3)O[C@@H]2COC(=O)CCC(C)=NOC[C@@H](C)[C@H](OCc2ccccc2)C(C)C)cc1  composite z-score   -0.694
3  COc1ccc(OC[C@H]2Cc3c(-c4ccccc4)nc4c(c3CO2)CN(CCOc2ccccc2)CC4)cc1  composite z-score     1.32
4  CCN1C(=O)[C@H]2[C@H]3[C@H](O)[C@H](O)CC(=NO[C@@H]4O[C@H](CO)[C@@H](O)[C@H](O)[C@H]4O)[C@@H]3CC[C@H]2C1=O  composite z-score    -1.12
5  COC(=O)[C@@]1(Cc2ccc(F)cc2)[C@@H]2C(=CC(=O)[C@H]2CC(=O)C(=O)N(C)C)CN1C(=O)c1ccccc1  composite z-score      3.5
6  CC(CCN1CCc2nc(-c3ccccc3)c(-c3ccccc3)cc2C1)=NOC[C@@H](C)[C@H](OCc1ccccc1)C(C)C  composite z-score    0.628
7  CO[C@H]1COC(=O)[C@@H]2CCCN2C(=O)[C@@H](C)COC(=O)CC=C[C@@H]1C  composite z-score   -0.652

====

Test system: Noggin (protein binding on small-molecule microarray)
Assay: Noggin binders on small-molecule microarray, primary screen, biochemical, 635/667 nm fluorescence (AID 1095);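 also: score merges 667 nm feature fluorescence with signal to noise over triplicate slides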
Conditions: 635 nm fluorescence, higher = more signal
endpoint: composite z-score

> print(dat)
                           structure.smiles  reading
1  COc1ccccc1CN1C(=O)c2ccccc2[C@@H](C(=O)NCC(F)(F)F)[C@@H]1c1ccc(CO)cc1     1.11
2  C#CCCCON=C1C[C@@H](O)[C@@H](O)[C@@H]2[C@@H]3C(=O)N([C@@H](C)c4ccccc4)C(=O)[C@@H]3CC[C@H]12    0.573
3  CC(CCN1CCc2nc(-c3ccccc3)c(-c3ccccc3)cc2C1)=NO[C@H](C)c1cn([C@@H]2COC[C@H]2O)nn1    0.224
4  O=C(NN=C1C[C@@H](O)[C@@H](O)[C@@H]2[C@@H]3C(=O)N(c4ccc(F)cc4F)C(=O)[C@@H]3CC[C@@H]12)OCc1ccccc1  -0.0944

====

System: Human papillomavirus type 1a protein E7 (residues 44-93)
Test: HPV1a E7 fragment binders on microarrays, primary screen, biochemical, small-molecule microarray, residues 44-93, 635 nm fluorescence (AID 1108);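 also: E7 fragment applied at 1 µg/mL in TBST for 1 h at 4 C; score combines spot fluorescence with its signal to noise ratio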
Conditions: small-molecule microarray binding, fluorescence 635 nm; higher = more signal
Label 1 for high-side composite z-score (at or above 0.6) and 0 for low-side composite z-score (below it).

compound	target_desc	group
O=C1C2=CC[C@H]3C(=O)N(Cc4ccc5c(c4)OCO5)C(=O)[C@H]3[C@H]2[C@H](O)[C@@H]2O[C@H]12	Human papillomavirus type 1a protein E7 (residues 44-93)	1
CCOC(=O)CCN1C(=O)[C@H]2[C@H]3[C@H](O)C=CC(=O)[C@@H]3CC[C@H]2C1=O	Human papillomavirus type 1a protein E7 (residues 44-93)	0
C=CC[C@@H]1C=C[C@H](ON=C(C)CCN2CCc3nc(CC)c(CC)cc3C2)[C@@H](CO)O1	Human papillomavirus type 1a protein E7 (residues 44-93)	1
CCN1C(=O)[C@H]2[C@H]3[C@H](O)[C@H](O)CC(=NOCc4ccccc4)[C@H]3CC[C@H]2C1=O	Human papillomavirus type 1a protein E7 (residues 44-93)	0
C=C(/C(=C/C[C@H](OC(C)=O)c1ccc(OCCO)cc1)c1cnc2ccccc2c1)C(C)C	Human papillomavirus type 1a protein E7 (residues 44-93)	1
[N-]=[N+]=NCc1ccccc1C[C@]1(C(=O)NCc2ccccc2)N=C(c2ccc(OCCCO)cc2)O[C@H]1c1ccccc1N=[N+]=[N-]	Human papillomavirus type 1a protein E7 (residues 44-93)	1
CC(C)CON=C1[C@H]2CCn3c(=O)n(-c4ccccc4)c(=O)n3[C@H]2[C@H](O)[C@@H]2O[C@H]12	Human papillomavirus type 1a protein E7 (residues 44-93)	0
CS(=O)(=O)CCOC(=O)C1=CC(CCCO)=CC(c2cccs2)N(Cc2cccc(OC(F)(F)F)c2)C=C1C(=O)OCCS(C)(=O)=O (centres undefined)	Human papillomavirus type 1a protein E7 (residues 44-93)	1
NCCCCCNC(=O)[C@@H]1C[C@@H]2C(=O)N3CCC[C@H]3C(=O)N2[C@@H]1c1cccc(OCCO)c1	Human papillomavirus type 1a protein E7 (residues 44-93)	1
CCOC(=O)CCN1C(=O)[C@H]2[C@H]3[C@H](O)[C@H](O)CC(=O)[C@H]3CC[C@H]2C1=O	Human papillomavirus type 1a protein E7 (residues 44-93)	0
CC(C)CN1CCc2nc(-c3ccccc3)c3c(c2CC1)CO[C@@H](C)C3	Human papillomavirus type 1a protein E7 (residues 44-93)	0
Cn1cccc1C(O)C1C=CC2C(=O)NC(=O)C2N1Nc1ccccn1 (centres undefined)	Human papillomavirus type 1a protein E7 (residues 44-93)	0
COC(=O)[C@@]1(Cc2ccc(F)cc2)[C@@H]2C(=CC(=O)[C@H]2CC(=O)C(=O)N(C)C)CN1C(=O)c1ccccc1	Human papillomavirus type 1a protein E7 (residues 44-93)	1
COCCOC(=O)N1C(=O)[C@@]2(c3cc(C#Cc4ccc(OC)cc4)ccc31)[C@H](C(=O)N1CCN(c3ncccn3)CC1)[C@H]1C(=O)O[C@H](c3ccccc3)[C@H](c3ccccc3)N1[C@@H]2c1ccc(OCCO)cc1	Human papillomavirus type 1a protein E7 (residues 44-93)	1
COc1ccc([Si](C)(C)[C@@H]2[C@@H](CCO)O[C@]3(C(=O)N(Cc4ccc(NC(C)=O)cc4)c4ccccc43)[C@H]2C)cc1	Human papillomavirus type 1a protein E7 (residues 44-93)	1
O=C1c2ccccc2[C@@]2(Cc3ccccc3N(C3CC3)C2=O)[C@H](c2ccc(CO)cc2)N1Cc1ccccc1C(F)(F)F	Human papillomavirus type 1a protein E7 (residues 44-93)	0
CCCCCN1CC=CC23O[C@@H]4C=CCOC(=O)[C@@H]4[C@H]2C(=O)N(CCCCCCO)[C@@H]3C1=O (some centres undefined)	Human papillomavirus type 1a protein E7 (residues 44-93)	0
C#CCCCON=C1C[C@@H](O)[C@@H](O)[C@@H]2[C@@H]3C(=O)N(c4cccc(Oc5ccccc5)c4)C(=O)[C@@H]3CC[C@@H]12	Human papillomavirus type 1a protein E7 (residues 44-93)	1
CCCNC(=O)OC[C@H]1O[C@H](CCON=C2[C@H]3CCn4c(=O)n(-c5ccccc5)c(=O)n4[C@H]3[C@H](O)[C@@H]3O[C@H]23)C=C[C@@H]1Oc1ccc(OC)cc1	Human papillomavirus type 1a protein E7 (residues 44-93)	0
Cc1ccc(C2CC=C(C(=O)O)CN2S(=O)(=O)c2ccc(C)cc2)cc1 (centres undefined)	Human papillomavirus type 1a protein E7 (residues 44-93)	1
O=C1[C@H]2[C@H]3[C@H](O)[C@H](O)CC(=NO[C@@H]4O[C@H](CO)[C@@H](O)[C@H](O)[C@H]4O)[C@@H]3CC[C@H]2C(=O)N1Cc1ccccc1	Human papillomavirus type 1a protein E7 (residues 44-93)	0
COC(=O)CC=C[C@@H](C)[C@@H](C=NO[C@@H](C)c1cc(-c2c(C)cc(C)cc2C)no1)OC	Human papillomavirus type 1a protein E7 (residues 44-93)	0
CN1C(=O)C2C(C1=O)C1C=C(CCCO)C2C(c2ccc(CN3CCCC3)cc2)N1C (centres undefined)	Human papillomavirus type 1a protein E7 (residues 44-93)	0
Cc1cc(C)c(-c2cc([C@H](C)ON=C3[C@H]4CCn5c(=O)n(-c6ccccc6)c(=O)n5[C@H]4[C@H](O)[C@@H]4O[C@H]34)on2)c(C)c1	Human papillomavirus type 1a protein E7 (residues 44-93)	0
CCc1cc2c(nc1CC)CCN(CCC(C)=NOC[C@@H](O)[C@H]1O[C@@H]3OC(C)(C)O[C@@H]3[C@H]1O)C2	Human papillomavirus type 1a protein E7 (residues 44-93)	0
Cc1cc2c(c(=O)o1)[C@H](O)[C@H]1O[C@H]1C2=O	Human papillomavirus type 1a protein E7 (residues 44-93)	0
CCOC(=O)CCN1C(=O)[C@H]2[C@H]3[C@H](O)[C@H](O)CC(=NNC(=O)OCc4ccc(OC)cc4)[C@@H]3CC[C@H]2C1=O	Human papillomavirus type 1a protein E7 (residues 44-93)	0
COCCOC(=O)N1C(=O)[C@@]2(c3cc(C#CCNC(N)=O)ccc31)[C@H](c1ccc(O)cc1)N1[C@H](c3ccccc3)[C@H](c3ccccc3)OC(=O)[C@H]1[C@@H]2C(=O)N1CCCCCCC1	Human papillomavirus type 1a protein E7 (residues 44-93)	1
O=C1C[C@@H](O)[C@@H](O)[C@@H]2[C@@H]3C(=O)N(c4cccc(Oc5ccccc5)c4)C(=O)[C@@H]3CC[C@@H]12	Human papillomavirus type 1a protein E7 (residues 44-93)	1
